Recorded values, source patent US5773437A.

Test: Mouse acute toxicity LD50 (i.v.), Probit method
Format: in vivo
Settings: in vivo, iv, calculated by Probit method
Structures can show the parent of a compound that is named as a salt.
Items are presented alongside their recorded LD50.
measurement.label: LD50

In [3]: df
Out[3]:
                                   molecule  readout_value
0  Cl.O=C1CN(C(CCN2CCOCC2)c2ccccc2)S(=O)(=O)c2ccccc21 (stereo not drawn) [Example 20[A]]    > 120 mg/kg
1  O=C1c2ccccc2S(=O)(=O)N1C(CCN1CCN(c2ncccn2)CC1)c1ccccc1 (stereo not drawn) [Example XII, Hydrochloride]    > 200 mg/kg
2  Cl.O=C1CN(C(CCN2CCSCC2)c2ccccc2)S(=O)(=O)c2ccccc21 (stereo not drawn)    > 100 mg/kg
